molecular target: cynomolgus BCMA (cynomolgus (given as cyBCMA, Cyno)); test: SPR, IgG immobilized, cyno BCMA analyte, 37 C
Sequence (chain, as listed by the source): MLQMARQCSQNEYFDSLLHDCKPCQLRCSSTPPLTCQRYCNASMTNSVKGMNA
testReadout: koff (s⁻¹)
Answers are plain numbers, in s⁻¹.

binder: A02_Rd4_0.6nM_C18 (antibody, V domains shown) VH: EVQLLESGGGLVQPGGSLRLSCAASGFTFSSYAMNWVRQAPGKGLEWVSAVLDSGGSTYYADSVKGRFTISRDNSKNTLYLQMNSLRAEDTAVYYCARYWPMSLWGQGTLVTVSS VL: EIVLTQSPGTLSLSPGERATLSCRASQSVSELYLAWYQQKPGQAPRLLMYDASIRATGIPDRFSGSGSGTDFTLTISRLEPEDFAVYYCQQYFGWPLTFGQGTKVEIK
reading: 0.000639
--
binder: A02_Rd4_6nM_C19 (antibody, V domains shown) VH: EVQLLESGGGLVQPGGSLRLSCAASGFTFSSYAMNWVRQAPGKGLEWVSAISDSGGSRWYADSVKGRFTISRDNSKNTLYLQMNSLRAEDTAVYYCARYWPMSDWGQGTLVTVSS VL: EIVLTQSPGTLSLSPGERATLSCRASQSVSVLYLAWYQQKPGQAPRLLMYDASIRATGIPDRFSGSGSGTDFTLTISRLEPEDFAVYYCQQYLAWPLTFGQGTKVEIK
reading: 0.000661
--
binder: A02_Rd4_6nM_C04 (antibody, V domains shown) VH: EVQLLESGGGLVQPGGSLRLSCAASGFTFSSYAMNWVRQAPGKGLEWVSAIMSSGGPLYYADSVKGRFTISRDNSKNTLYLQMNSLRAEDTAVYYCARYWPMALWGQGTLVTVSS VL: EIVLTQSPGTLSLSPGERATLSCRASQSVSALYLAWYQQKPGQAPRLLMYDASIRATGIPDRFSGSGSGTDFTLTISRLEPEDFAVYYCQQYQVWPLTFGQGTKVEIK
reading: 0.000831
--
binder: A02_Rd4_6nM_C08 (antibody, V domains shown) VH: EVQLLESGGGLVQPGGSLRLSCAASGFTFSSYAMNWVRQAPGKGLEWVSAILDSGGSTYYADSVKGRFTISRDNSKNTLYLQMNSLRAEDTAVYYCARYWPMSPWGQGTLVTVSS VL: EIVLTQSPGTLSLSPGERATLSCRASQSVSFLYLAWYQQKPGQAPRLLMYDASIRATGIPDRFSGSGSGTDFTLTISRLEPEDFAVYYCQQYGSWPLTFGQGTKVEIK
reading: 0.0113

Moving on to another binder below.
Input line: Input A02_Rd4_0.6nM_C06 (antibody, V domains shown) VH: EVQLLESGGGLVQPGGSLRLSCAASGFTFSSYAMNWVRQAPGKGLEWVSAISDSGGSAWYADSVKGRFTISRDNSKNTLYLQMNSLRAEDTAVYYCARYWPMSLWGQGTLVTVSS VL: EIVLTQSPGTLSLSPGERATLSCRASQSVSVLYLAWYQQKPGQAPRLLMYDASIRATGIPDRFSGSGSGTDFTLTISRLEPEDFAVYYCQQYQRWPLTFGQGTKVEIK , output reported koff.
Output line: 0.000105
